- Tested on: cancer cell lines from the cancer cell line encyclopedia (CCLE)
- Method Notes: Cell line profiling (CLiP) proliferation experiment
- Assay type: cell-based
- Condition Info: Homo sapiens, Hs 294T, cell line Hs 294T, skin; read-out: Inflection Point
pEC50: −log10 of the molar value.
Measured Attribute: pEC50

>>> print(df.to_string())
                              record_smiles  measured_attribute  reading
0  CC(C)[C@@]12C[C@@H](O)[C@@](C)(O1)[C@@H]1CC[C@@H](C)[C@H]1[C@@H]2OC(=O)/C=C/c1ccccc1               pEC50     4.65

---

- Tested on: cancer cell lines from the cancer cell line encyclopedia (CCLE)
- Method Notes: Cell line profiling (CLiP) proliferation experiment
- Type: cell-based
- Condition Info: DK-MG, central_nervous_system, astrocytoma_Grade_IV; read-out: Crossing Point
pIC50: −log10 of the molar value.
Measured Attribute: pIC50

                                   compound  reading
0  CC(C)[C@@]12C[C@@H](O)[C@@](C)(O1)[C@@H]1CC[C@@H](C)[C@H]1[C@@H]2OC(=O)/C=C/c1ccccc1 [Englerin B]     4.79
